# AC50 values compiled below
- assay-system: Muscarinic acetylcholine receptor M1 (Homo sapiens); also: assay procedure not described here
- Sequence (P11229 whole entry): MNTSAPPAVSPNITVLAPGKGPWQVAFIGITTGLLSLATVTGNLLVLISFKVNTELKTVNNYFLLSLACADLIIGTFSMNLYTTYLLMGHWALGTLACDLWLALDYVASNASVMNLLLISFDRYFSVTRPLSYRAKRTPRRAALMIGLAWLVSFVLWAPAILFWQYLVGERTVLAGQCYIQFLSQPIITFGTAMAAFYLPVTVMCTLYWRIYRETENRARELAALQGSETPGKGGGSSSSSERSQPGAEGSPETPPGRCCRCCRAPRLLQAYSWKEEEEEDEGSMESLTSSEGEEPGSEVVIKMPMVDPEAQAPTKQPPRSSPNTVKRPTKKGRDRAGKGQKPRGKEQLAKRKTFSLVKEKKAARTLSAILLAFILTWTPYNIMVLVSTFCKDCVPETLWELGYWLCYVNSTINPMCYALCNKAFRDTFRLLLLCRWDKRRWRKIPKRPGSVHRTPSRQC
- Assay type: functional, cell-based

Worked examples, 10 molecules total:
| molecule | recorded-measurement |
| --- | --- |
| CCOC(=O)N1CSC[C@H]1C(=O)O | > 30 µM |
| N[C@@H](CO)C(=O)O | > 30 µM |
| C[C@H](Cc1cc2c(c(C(N)=O)c1)N(CCCO)CC2)NCCOc1ccccc1OCC(F)(F)F | > 30 µM |
| FC(F)(F)c1ccc(CNc2ccc(Cc3c[nH]c4ncc(Cl)cc34)cn2)cn1 | > 30 µM |
| CCC(=O)O[C@]1(C(=O)CCl)[C@@H](C)C[C@H]2[C@@H]3C[C@H](F)C4=CC(=O)C=C[C@]4(C)[C@@]3(F)[C@@H](O)C[C@@]21C [HALOBETASOL PROPIONATE] | > 30 µM |
| CN1C(=O)/C(=N\NC(N)=S)c2ccccc21 | 26.4 µM |
| CC(=O)O[C@]1(C(C)=O)CC[C@H]2[C@@H]3C=C(C)C4=CC(=O)CC[C@@H]4[C@H]3CC[C@@]21C [NOMEGESTROL ACETATE] | > 30 µM |
| CCC(=O)O[C@]1(C(=O)SCF)[C@H](C)C[C@H]2[C@@H]3C[C@H](F)C4=CC(=O)C=C[C@]4(C)[C@@]3(F)[C@@H](O)C[C@@]21C [FLUTICASONE PROPIONATE] | > 30 µM |
| CN1CCCCC1CCN1c2ccccc2Sc2ccc([S+](C)[O-])cc21 (stereo not drawn) | > 30 µM |
| [H]/N=C(\N/C(=N/[H])Nc1ccc(Cl)cc1)NC(C)C | > 30 µM |

Exam item: Write down the reported AC50 (system: Muscarinic acetylcholine receptor M1 (Homo sapiens)) of Cc1ncc(COP(=O)(O)O)c(C=O)c1O [PYRIDOXAL PHOSPHATE ANHYDROUS]; also: assay procedure not described here
Marked response: > 30 µM

Exam item: Write down the reported AC50 (system: Muscarinic acetylcholine receptor M1 (Homo sapiens)) of COc1c2ccoc2cc2oc(=O)ccc12; also: assay procedure not described here
Marked response: > 30 µM

Exam item: Write down the reported AC50 (system: Muscarinic acetylcholine receptor M1 (Homo sapiens)) of CCN(CCCc1ccccc1)CCCc1ccccc1; also: assay procedure not described here
Marked response: > 30 µM

Exam item: Write down the reported AC50 (system: Muscarinic acetylcholine receptor M1 (Homo sapiens)) of Nc1c2ccccc2nc2ccccc12; also: assay procedure not described here
Marked response: > 30 µM

Exam item: Write down the reported AC50 (system: Muscarinic acetylcholine receptor M1 (Homo sapiens)) of C=CCN1CC[C@]23CCCC[C@H]2[C@H]1Cc1ccc(O)cc13; also: assay procedure not described here
Marked response: > 30 µM

Exam item: Write down the reported AC50 (system: Muscarinic acetylcholine receptor M1 (Homo sapiens)) of OC[C@H]1O[C@@H](c2ccc(F)c(Cc3cc4ccccc4s3)c2)[C@H](O)[C@@H](O)[C@@H]1O; also: assay procedure not described here
Marked response: > 30 µM

Exam item: Write down the reported AC50 (system: Muscarinic acetylcholine receptor M1 (Homo sapiens)) of CCN(CC)C(=S)S; also: assay procedure not described here
Marked response: > 30 µM
